# target_under_test: MAPK14 (human) (UniProt Q16539)
# Sequence (Q16539 whole entry, looked up): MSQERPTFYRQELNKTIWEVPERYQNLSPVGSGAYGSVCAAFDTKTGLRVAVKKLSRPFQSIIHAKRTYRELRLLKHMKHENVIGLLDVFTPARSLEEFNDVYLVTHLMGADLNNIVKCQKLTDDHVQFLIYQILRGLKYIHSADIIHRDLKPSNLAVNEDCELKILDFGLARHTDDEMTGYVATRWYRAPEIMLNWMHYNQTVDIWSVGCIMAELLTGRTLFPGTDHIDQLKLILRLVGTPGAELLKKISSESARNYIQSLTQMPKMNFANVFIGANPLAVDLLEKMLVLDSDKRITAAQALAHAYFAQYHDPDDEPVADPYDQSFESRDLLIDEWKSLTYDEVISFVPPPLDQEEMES
# assay_notes: KINOMEscan competition binding
# test_settings: compound 10.0 µM
Exercise: state measured kinase still bound, per cent of control for each of the compounds provided.
The reply should be a number in %, with the unit left off.

Could you tell me which kinase still bound, per cent of control is on file for CCC(=O)N1CCN(c2ccc(-n3c(=O)ccc4cnc5ccc(-c6cnc7ccccc7c6)cc5c43)cc2C(F)(F)F)CC1 ?
90

Could you tell me which kinase still bound, per cent of control is on file for CC(C)n1nc(-c2cc3cc(O)ccc3[nH]2)c2c(N)ncnc21 ?
95

Could you tell me which kinase still bound, per cent of control is on file for COC(=O)Nc1ccc(-c2nc(N3CCOCC3)c3cnn(C4CCN(C(=O)OC)CC4)c3n2)cc1 ?
80

Could you tell me which kinase still bound, per cent of control is on file for COc1ccc(-c2ccc3c(N4CCOCC4)nc(N4C[C@@H](C)O[C@@H](C)C4)nc3n2)cc1CO ?
99

* * *

# target_under_test: YSK4 (human)
# assay_notes: KINOMEscan competition binding
# test_settings: compound 10.0 µM
measure: kinase still bound, per cent of control
Provide a numeric answer, followed by its unit.

Could you tell me which kinase still bound, per cent of control is on file for CCC(=O)N1CCN(c2ccc(-n3c(=O)ccc4cnc5ccc(-c6cnc7ccccc7c6)cc5c43)cc2C(F)(F)F)CC1 ?
38%

Could you tell me which kinase still bound, per cent of control is on file for COc1ccc(-c2ccc3c(N4CCOCC4)nc(N4C[C@@H](C)O[C@@H](C)C4)nc3n2)cc1CO ?
100%

Could you tell me which kinase still bound, per cent of control is on file for COC(=O)Nc1ccc(-c2nc(N3CCOCC3)c3cnn(C4CCN(C(=O)OC)CC4)c3n2)cc1 ?
75%

Could you tell me which kinase still bound, per cent of control is on file for CC(C)n1nc(-c2cc3cc(O)ccc3[nH]2)c2c(N)ncnc21 ?
0%

* * *

# target_under_test: PKMYT1 (human) (UniProt Q99640)
# Sequence (Q99640 whole entry, looked up): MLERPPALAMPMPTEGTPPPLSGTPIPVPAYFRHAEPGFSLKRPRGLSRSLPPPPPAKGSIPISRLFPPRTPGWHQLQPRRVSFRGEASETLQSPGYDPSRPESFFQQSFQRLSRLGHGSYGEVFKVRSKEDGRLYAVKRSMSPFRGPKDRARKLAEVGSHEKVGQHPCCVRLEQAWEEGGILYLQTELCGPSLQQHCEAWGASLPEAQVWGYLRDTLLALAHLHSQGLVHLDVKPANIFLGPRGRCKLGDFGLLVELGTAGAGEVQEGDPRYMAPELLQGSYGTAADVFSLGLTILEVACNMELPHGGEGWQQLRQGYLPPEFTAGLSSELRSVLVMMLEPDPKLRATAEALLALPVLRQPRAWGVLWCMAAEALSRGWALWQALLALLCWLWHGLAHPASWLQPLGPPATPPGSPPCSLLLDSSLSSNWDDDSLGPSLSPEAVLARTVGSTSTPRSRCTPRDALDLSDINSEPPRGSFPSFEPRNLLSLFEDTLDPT
# assay_notes: KINOMEscan competition binding
# test_settings: compound 10.0 µM
measure: kinase still bound, per cent of control (%)
The reply should be a number in %, with the unit left off.

Requested read-out kinase still bound, per cent of control, target or system PKMYT1 (human) (UniProt Q99640), entry COc1ccc(-c2ccc3c(N4CCOCC4)nc(N4C[C@@H](C)O[C@@H](C)C4)nc3n2)cc1CO
84

Requested read-out kinase still bound, per cent of control, target or system PKMYT1 (human) (UniProt Q99640), entry CC(C)n1nc(-c2cc3cc(O)ccc3[nH]2)c2c(N)ncnc21
37

Requested read-out kinase still bound, per cent of control, target or system PKMYT1 (human) (UniProt Q99640), entry COC(=O)Nc1ccc(-c2nc(N3CCOCC3)c3cnn(C4CCN(C(=O)OC)CC4)c3n2)cc1
100

Requested read-out kinase still bound, per cent of control, target or system PKMYT1 (human) (UniProt Q99640), entry CCC(=O)N1CCN(c2ccc(-n3c(=O)ccc4cnc5ccc(-c6cnc7ccccc7c6)cc5c43)cc2C(F)(F)F)CC1
52

* * *

# target_under_test: YES1 (human) (UniProt P07947)
# Sequence (P07947 whole entry, looked up): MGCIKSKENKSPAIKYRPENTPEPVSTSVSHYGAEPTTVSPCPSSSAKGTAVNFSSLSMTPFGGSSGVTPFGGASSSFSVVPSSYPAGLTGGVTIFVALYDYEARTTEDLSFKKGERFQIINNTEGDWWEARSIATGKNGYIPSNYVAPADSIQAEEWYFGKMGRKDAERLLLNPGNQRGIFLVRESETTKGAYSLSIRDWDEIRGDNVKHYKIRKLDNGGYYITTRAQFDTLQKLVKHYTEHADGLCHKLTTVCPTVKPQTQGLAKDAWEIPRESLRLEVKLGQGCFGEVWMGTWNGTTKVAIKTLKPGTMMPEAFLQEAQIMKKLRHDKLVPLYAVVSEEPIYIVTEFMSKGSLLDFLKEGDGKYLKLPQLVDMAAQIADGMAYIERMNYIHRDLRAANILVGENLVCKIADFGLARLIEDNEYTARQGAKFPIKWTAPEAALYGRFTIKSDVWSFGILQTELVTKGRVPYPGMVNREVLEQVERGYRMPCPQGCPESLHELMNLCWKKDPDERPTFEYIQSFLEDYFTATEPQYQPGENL
# test_settings: compound 1.0 µM
Exercise: state measured per cent of control for each of the compounds provided.
The reply should be a number in %, with the unit left off.

Could you tell me which per cent of control is on file for CC(C)n1nc(-c2cc3cc(O)ccc3[nH]2)c2c(N)ncnc21 ?
-2

Could you tell me which per cent of control is on file for CCC(=O)N1CCN(c2ccc(-n3c(=O)ccc4cnc5ccc(-c6cnc7ccccc7c6)cc5c43)cc2C(F)(F)F)CC1 ?
113

Could you tell me which per cent of control is on file for COc1ccc(-c2ccc3c(N4CCOCC4)nc(N4C[C@@H](C)O[C@@H](C)C4)nc3n2)cc1CO ?
94

Could you tell me which per cent of control is on file for COC(=O)Nc1ccc(-c2nc(N3CCOCC3)c3cnn(C4CCN(C(=O)OC)CC4)c3n2)cc1 ?
109

* * *

# target_under_test: PHKG1 (human) (UniProt Q16816)
# Sequence (Q16816 whole entry, looked up): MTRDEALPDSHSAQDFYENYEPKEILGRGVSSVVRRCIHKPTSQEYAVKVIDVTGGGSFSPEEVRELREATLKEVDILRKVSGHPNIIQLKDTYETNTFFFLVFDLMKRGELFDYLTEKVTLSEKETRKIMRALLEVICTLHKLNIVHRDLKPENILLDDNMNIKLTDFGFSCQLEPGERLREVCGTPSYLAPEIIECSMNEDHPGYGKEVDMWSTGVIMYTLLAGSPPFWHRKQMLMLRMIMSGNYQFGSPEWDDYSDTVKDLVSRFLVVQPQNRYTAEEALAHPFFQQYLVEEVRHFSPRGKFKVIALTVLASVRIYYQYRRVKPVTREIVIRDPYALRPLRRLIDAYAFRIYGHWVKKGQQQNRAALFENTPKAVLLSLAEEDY
# assay_notes: KINOMEscan competition binding
# test_settings: compound 10.0 µM
Exercise: state measured kinase still bound, per cent of control for each of the compounds provided.
The reply should be a number in %, with the unit left off.

Could you tell me which kinase still bound, per cent of control is on file for COc1ccc(-c2ccc3c(N4CCOCC4)nc(N4C[C@@H](C)O[C@@H](C)C4)nc3n2)cc1CO ?
93

Could you tell me which kinase still bound, per cent of control is on file for CCC(=O)N1CCN(c2ccc(-n3c(=O)ccc4cnc5ccc(-c6cnc7ccccc7c6)cc5c43)cc2C(F)(F)F)CC1 ?
100

Could you tell me which kinase still bound, per cent of control is on file for CC(C)n1nc(-c2cc3cc(O)ccc3[nH]2)c2c(N)ncnc21 ?
50

Could you tell me which kinase still bound, per cent of control is on file for COC(=O)Nc1ccc(-c2nc(N3CCOCC3)c3cnn(C4CCN(C(=O)OC)CC4)c3n2)cc1 ?
81

* * *

# target_under_test: MINK1 (human) (UniProt Q8N4C8)
# Sequence (Q8N4C8 whole entry, looked up): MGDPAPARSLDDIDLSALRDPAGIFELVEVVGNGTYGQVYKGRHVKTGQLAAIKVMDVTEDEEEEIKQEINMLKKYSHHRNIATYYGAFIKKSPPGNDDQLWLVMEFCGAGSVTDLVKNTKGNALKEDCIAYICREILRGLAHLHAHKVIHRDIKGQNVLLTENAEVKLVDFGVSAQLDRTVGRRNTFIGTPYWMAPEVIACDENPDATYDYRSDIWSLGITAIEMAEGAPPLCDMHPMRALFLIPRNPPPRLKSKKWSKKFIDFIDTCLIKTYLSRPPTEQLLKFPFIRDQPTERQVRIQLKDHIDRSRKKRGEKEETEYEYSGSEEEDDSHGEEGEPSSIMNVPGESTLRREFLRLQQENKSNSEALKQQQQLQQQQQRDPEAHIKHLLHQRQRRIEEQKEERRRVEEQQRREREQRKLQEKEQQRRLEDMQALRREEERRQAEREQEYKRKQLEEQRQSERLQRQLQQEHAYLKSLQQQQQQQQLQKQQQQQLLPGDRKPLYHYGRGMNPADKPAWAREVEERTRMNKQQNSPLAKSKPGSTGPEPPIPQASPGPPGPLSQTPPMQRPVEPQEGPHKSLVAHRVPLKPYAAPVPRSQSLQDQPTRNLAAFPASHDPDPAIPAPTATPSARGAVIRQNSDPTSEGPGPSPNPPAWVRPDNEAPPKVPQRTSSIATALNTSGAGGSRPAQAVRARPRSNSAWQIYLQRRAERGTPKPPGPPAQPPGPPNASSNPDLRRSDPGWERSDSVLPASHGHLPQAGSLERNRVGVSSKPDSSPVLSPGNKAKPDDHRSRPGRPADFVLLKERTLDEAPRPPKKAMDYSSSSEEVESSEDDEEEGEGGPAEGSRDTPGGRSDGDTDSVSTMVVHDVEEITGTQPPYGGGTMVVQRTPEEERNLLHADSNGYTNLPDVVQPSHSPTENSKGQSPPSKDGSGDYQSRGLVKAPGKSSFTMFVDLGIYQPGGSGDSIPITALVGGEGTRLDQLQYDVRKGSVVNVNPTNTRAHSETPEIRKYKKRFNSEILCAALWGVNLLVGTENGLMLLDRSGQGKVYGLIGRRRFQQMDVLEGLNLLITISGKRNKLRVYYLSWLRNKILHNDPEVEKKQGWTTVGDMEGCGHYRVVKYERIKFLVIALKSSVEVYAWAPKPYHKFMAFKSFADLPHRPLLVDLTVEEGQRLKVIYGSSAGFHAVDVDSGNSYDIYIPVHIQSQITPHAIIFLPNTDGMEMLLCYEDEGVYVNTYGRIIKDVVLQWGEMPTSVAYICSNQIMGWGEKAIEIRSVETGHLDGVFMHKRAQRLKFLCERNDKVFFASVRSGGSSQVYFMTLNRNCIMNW
# assay_notes: KINOMEscan competition binding
# test_settings: compound 10.0 µM
measure: kinase still bound, per cent of control (%)
The reply should be a number in %, with the unit left off.

Could you tell me which kinase still bound, per cent of control is on file for COC(=O)Nc1ccc(-c2nc(N3CCOCC3)c3cnn(C4CCN(C(=O)OC)CC4)c3n2)cc1 ?
100

Could you tell me which kinase still bound, per cent of control is on file for CCC(=O)N1CCN(c2ccc(-n3c(=O)ccc4cnc5ccc(-c6cnc7ccccc7c6)cc5c43)cc2C(F)(F)F)CC1 ?
19

Could you tell me which kinase still bound, per cent of control is on file for CC(C)n1nc(-c2cc3cc(O)ccc3[nH]2)c2c(N)ncnc21 ?
7.7

Could you tell me which kinase still bound, per cent of control is on file for COc1ccc(-c2ccc3c(N4CCOCC4)nc(N4C[C@@H](C)O[C@@H](C)C4)nc3n2)cc1CO ?
100

* * *

# target_under_test: GSK3B (human) (UniProt P49841)
# Sequence (P49841 whole entry, looked up): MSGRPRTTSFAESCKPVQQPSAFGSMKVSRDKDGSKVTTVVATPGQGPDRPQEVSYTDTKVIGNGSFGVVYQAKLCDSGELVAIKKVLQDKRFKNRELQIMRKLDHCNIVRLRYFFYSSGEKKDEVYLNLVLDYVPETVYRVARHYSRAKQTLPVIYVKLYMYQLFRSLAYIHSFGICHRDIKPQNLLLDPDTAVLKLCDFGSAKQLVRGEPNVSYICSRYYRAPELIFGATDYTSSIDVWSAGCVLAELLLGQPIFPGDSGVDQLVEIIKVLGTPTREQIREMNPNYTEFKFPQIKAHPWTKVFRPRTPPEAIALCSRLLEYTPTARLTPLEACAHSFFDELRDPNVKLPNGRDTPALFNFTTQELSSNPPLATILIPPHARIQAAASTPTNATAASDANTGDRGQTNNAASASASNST
# assay_notes: KINOMEscan competition binding
# test_settings: compound 10.0 µM
measure: kinase still bound, per cent of control (%)
The reply should be a number in %, with the unit left off.

Could you tell me which kinase still bound, per cent of control is on file for CCC(=O)N1CCN(c2ccc(-n3c(=O)ccc4cnc5ccc(-c6cnc7ccccc7c6)cc5c43)cc2C(F)(F)F)CC1 ?
100

Could you tell me which kinase still bound, per cent of control is on file for COC(=O)Nc1ccc(-c2nc(N3CCOCC3)c3cnn(C4CCN(C(=O)OC)CC4)c3n2)cc1 ?
100

Could you tell me which kinase still bound, per cent of control is on file for CC(C)n1nc(-c2cc3cc(O)ccc3[nH]2)c2c(N)ncnc21 ?
91

Could you tell me which kinase still bound, per cent of control is on file for COc1ccc(-c2ccc3c(N4CCOCC4)nc(N4C[C@@H](C)O[C@@H](C)C4)nc3n2)cc1CO ?
100

* * *

# target_under_test: PAK4 (human)
# test_settings: compound 1.0 µM
Exercise: state measured per cent of control for each of the compounds provided.
The reply should be a number in %, with the unit left off.

Could you tell me which per cent of control is on file for COc1ccc(-c2ccc3c(N4CCOCC4)nc(N4C[C@@H](C)O[C@@H](C)C4)nc3n2)cc1CO ?
11

Could you tell me which per cent of control is on file for CCC(=O)N1CCN(c2ccc(-n3c(=O)ccc4cnc5ccc(-c6cnc7ccccc7c6)cc5c43)cc2C(F)(F)F)CC1 ?
110

Could you tell me which per cent of control is on file for COC(=O)Nc1ccc(-c2nc(N3CCOCC3)c3cnn(C4CCN(C(=O)OC)CC4)c3n2)cc1 ?
93

Could you tell me which per cent of control is on file for CC(C)n1nc(-c2cc3cc(O)ccc3[nH]2)c2c(N)ncnc21 ?
88

* * *

Exercise: state measured kinase still bound, per cent of control for each of the compounds provided.
# target_under_test: UniProt:P49759
# Sequence (P49759 whole entry, looked up): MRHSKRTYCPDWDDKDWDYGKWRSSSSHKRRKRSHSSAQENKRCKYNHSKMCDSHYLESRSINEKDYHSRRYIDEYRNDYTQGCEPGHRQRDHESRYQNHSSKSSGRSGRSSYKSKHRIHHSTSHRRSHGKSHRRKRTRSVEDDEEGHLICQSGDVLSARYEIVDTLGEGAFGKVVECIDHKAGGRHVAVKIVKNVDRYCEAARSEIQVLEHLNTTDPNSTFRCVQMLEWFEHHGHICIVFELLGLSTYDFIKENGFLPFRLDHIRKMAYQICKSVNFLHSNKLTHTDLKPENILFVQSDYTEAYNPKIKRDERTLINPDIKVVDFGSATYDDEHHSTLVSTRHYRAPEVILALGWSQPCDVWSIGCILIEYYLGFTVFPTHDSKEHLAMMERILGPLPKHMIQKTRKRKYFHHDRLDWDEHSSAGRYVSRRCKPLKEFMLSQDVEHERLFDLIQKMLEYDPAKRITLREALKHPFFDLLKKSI
# assay_notes: KINOMEscan competition binding
# test_settings: compound 10.0 µM
The reply should be a number in %, with the unit left off.

Could you tell me which kinase still bound, per cent of control is on file for COc1ccc(-c2ccc3c(N4CCOCC4)nc(N4C[C@@H](C)O[C@@H](C)C4)nc3n2)cc1CO ?
52

Could you tell me which kinase still bound, per cent of control is on file for CC(C)n1nc(-c2cc3cc(O)ccc3[nH]2)c2c(N)ncnc21 ?
14

Could you tell me which kinase still bound, per cent of control is on file for COC(=O)Nc1ccc(-c2nc(N3CCOCC3)c3cnn(C4CCN(C(=O)OC)CC4)c3n2)cc1 ?
100

Could you tell me which kinase still bound, per cent of control is on file for CCC(=O)N1CCN(c2ccc(-n3c(=O)ccc4cnc5ccc(-c6cnc7ccccc7c6)cc5c43)cc2C(F)(F)F)CC1 ?
49

Source of measurements: the kinase profiling compilation of Christmann-Franck et al. (2016)
